Assay: Test 2: Pharmacokinetic test in rats
Type: in vivo, rat
Details: rat, blood, iv, 10 mg/kg, Rat-3, i.v. 10 mg/kg, 180 min; read-out: Blood concentration
Procedure: Male rats and dogs were fasted for 24 hours and used as the experimental animals. […] Bloods were collected from the animals at given time intervals and then immediately mixed with methanol and zinc sulfate. Finally, the upper layer of the mixture was quantitatively analyzed at ultraviolet wavelength of 231 nm to measure the drug concentration in blood by HPLC.
Assay Metric: concentration at 3 h (ng/mL)
I only need the number, in ng/mL, no unit after it.

stdin: Requested read-out: concentration at 3 h. Entry: CN(C(=O)[C@H](Cc1ccc(C(=N)NN)cc1)NS(=O)(=O)c1ccc2ccccc2c1)C1CCCC1 [Example 1]
stdout: 78
